tested on: VchCAST RNA-guided transposition machinery (E. coli BL21(DE3) host, lacZ target); assay: relative integration efficiency (T-RL orientation) vs wild-type transposon end (log2 (normalized fold change)); transposon end mutated: right end (5 bp flank + 75 bp right end); higher = more efficient transposition
measured-quantity: relative integration efficiency (log2)

INSERT INTO assay_data (seq, result_number) VALUES
  ('ACATTTCTTCATACAACCATAAAATGATAATTACACCCATAAATTGATAATTATCACACCCAATTTAACTATAACGCTCTGATCATAGTCAGACCAACATTGCTACGACCCGTATTCGCACCGACAC', -3.68),
  ('ACATTTGTTGATACAAGGATAAAATGATAATTACACCCATAAATTGATAATTATCACACCCATAAATTGATATTGCCTCTGATCATAGTCAGACCAACATTGCTACGACCCGTATTCGCACCGACAC', -0.223),
  ('ACATTTGTTGATACAACCATAACATGATAATTACACCCATAACTTGATAATTATCACACCCATAACTTGATATTGCCTCTGATCATAGTCAGACCAACATTGCTACGACCCGTATTCGCACCGACAC', -0.331),
  ('ACATTTCTGGATACAACCATAAAATGATAATTACACCCATAAATTGATCATTATCACACCCAATTTAACTATAACGCTCTGATCATAGTCAGACCAACATTGCTACGACCCGTATTCGCACCGACAC', -2.77),
  ('ACATTTGTTGATACAACCATTAAATGATAATTCCACCCATCAATTGATAATTATCACACCCAATTTAACTATAACGCTCTGATCATAGTCAGACCAACATTGCTACGACCCGTATTCGCACCGACAC', -1.79),
  ('ACATTTGTTGATACAACCATAAAATGATAATTACACCCATAAATTGATAATTAAAACACCCATAAATTGATATTGCCTCTGATCATAGTCAGACCAACATTGCTACGACCCGTATTCGCACCGACAC', -0.399),
  ('ACATTTGTTGATACAACCATAAAATGATATAATCACCCATAAATTGATATAATTCACACCCATAAATTGATAAACGCTCTGATCATAGTCAGACCAACATTGCTACGACCCGTATTCGCACCGACAC', -1.01),
  ('ACATTTGTTGATACAACCATAAAATGATAATTACCAAAATAAATTGATAATTATCACACCCATAAATTGATATTGCCTCTGATCATAGTCAGACCAACATTGCTACGACCCGTATTCGCACCGACAC', -0.773),
  ('ACATTTGTTGATACAACCATAAAATGATAATTACACCACGCCCGGTCGCCGGCGACACAAACGCCCGGTCGCGGTAAGAGGATCATAGTCAGACCAACATTGCTACGACCCGTATTCGCACCGACAC', -2.31),
  ('ACATTTGTTGATACAACCATAAAATGATAATTACACCCATAAATTGATATCACACCCATAAATTGATATTGCCTCTGATCATAGTCAGACCAACATTGCTACGACCCGTATTCGCACCGACACTGAC', -1.06),
  ('ACATTTGTTGATACAACCATTAAATGATAATTCCACCCATACATTGATAATTATCACACCCAATTTAACTATAACGCTCTGATCATAGTCAGACCAACATTGCTACGACCCGTATTCGCACCGACAC', -2.63),
  ('ACATTTGTTGATACAACCATAAAATGATAATTACTCTGATCATAGTCAGACCAACATTGCTACGACCCGTATTCGCACCGACACAACGACTATATTTATGGGTCACCCATAAATTGATAATTATCAG', -1.52),
  ('ACATTTGTTGATACAACCATAAAATCATAATTACACCCATAAATTGATAATTATCCCACCCAATTTAACTATAACGCTCTGATCATAGTCAGACCAACATTGCTACGACCCGTATTCGCACCGACAC', -2.19),
  ('ACATTTGTTGATACAACCATAAAATGATAATTACACCCATAAATTGATAATTACCACTCCCAATTTAACTATAACGCTCTGATCATAGTCAGACCAACATTGCTACGACCCGTATTCGCACCGACAC', -0.782),
  ('ACATTTGTTGATACAACCATAAAATGATAATTACAACCATAAAGTGATATTTATCACACCCATAAATTGATATTGCCTCTGATCATAGTCAGACCAACATTGCTACGACCCGTATTCGCACCGACAC', -0.128),
  ('ACATTTGTTGATACAACCATAAAATGATAATTACACCCATAAATTGATAATTATACCACCCATAAATTGATATTGCCTCTGATCATAGTCAGACCAACATTGCTACGACCCGTATTCGCACCGACAC', -0.694),
  ('ACATTTGTTGATACAACCATAAAATGATTTAAACACCCATAAATTGATAATTATCACACCCATAAATTGATATTGCCTCTGATCATAGTCAGACCAACATTGCTACGACCCGTATTCGCACCGACAC', -0.381),
  ('ACATTTGTTGATACAACCATAAAGTGATATTTACAACCATAAGTTGATATTTTTCACAACCATAAGTTGATATTTTCTCTGATCATAGTCAGACCAACATTGCTACGACCCGTATTCGCACCGACAC', 0.36),
  ('ACATTTGTTGATACAACCATAAAATGATAATTAATAATTATTTATCACCCATAAATTGATAATTATCAACAAACGCCCGGTCGCGGTACTCTGATCATAGTCAGACCAACATTGCTACGACCCGTAT', -0.654),
  ('ACATTTGTTGATACAACCATAAAATCTTAATTACACCCATAAATTGATAATTATCACACCCATAAATTGATATTGCCTCTGATCATAGTCAGACCAACATTGCTACGACCCGTATTCGCACCGACAC', -1.97);

---

test system: VchCAST RNA-guided transposition machinery (E. coli BL21(DE3) host, lacZ target); assay: relative integration efficiency (T-LR orientation) vs wild-type transposon end (log2 (normalized fold change)); transposon end mutated: left end; higher = more efficient transposition
Lab note: compare relative integration efficiency (log2) against -4. Equal or greater, write Fulfilled. Smaller, write Not fulfilled.

INSERT INTO measurements (seq, class_name) VALUES
  ('AATGTTGTTGATGCAACCATAAAGTGATATTTAATAACTTCGTATAATGTATCGTATACGAACGGTACAACCATATATTGATATCTCACAAAACAACCATAAGTTGATATTTTTGTGAATCGAGTATTTCAGCAAAACTACTGCAGTAAGAA', 'Not fulfilled'),
  ('AATGTTGTTGATGCAACCATAAAGTGATATTTATTGTGAGCGGATAACAATTGTGAGCGGATAACAACAACCATATATTGATATCTCACAAAACAACCATAAGTTGATATTTTTGTGAATCGAGTATTTCAGCAAAACTACTGCAGTAAGAA', 'Not fulfilled'),
  ('AATGTTGTTGATGGTTGGTATTTCACTATAAATATAATTATTTATAATCAGCAACTTAACCACAAAAGTTGGTATATAACTATAGAGACAAAAGTTGGTATTCAACTATAAAATGTGAATCGAGTATTTCAGCAAAACTACTGCAGTAAGAA', 'Not fulfilled'),
  ('AATGTTGTTGATGCAACCATAAAGTGATATTTACGAGCCGAGCTCGTGCCCGGTGCCGCGGCAGACGCAACCATATATTGATATCTCACAAAACAACCATAAGTTGATATTTTTGTGAATCGAGTATTTCAGCAAAACTACTGCAGTAAGAA', 'Fulfilled'),
  ('AATGTTGTTGATGCAACCATAAAGTGATATTTAATAATTATTTATAATCAGCAACTTAACCACAAAACAACCATATATTGATATCTCACAAAACAACCATAAGTTGAGCGGGGGTGTCCGATCTGATTTCAGCAAAACTACTGCAGTAAGAA', 'Fulfilled'),
  ('AATGTTGTTGATGCAACCATAAAATGATAATTAATAATTATTTATAATCAGCAACTTAACCACAAAACACCCATAAATTGATAATTAACAAAAGTTGGTATTCAACTATAAAATGTGAATCGAGTATTTCAGCAAAACTACTGCAGTAAGAA', 'Fulfilled'),
  ('AATGTTGTTGATGCAACCATAAAATGATAATTAATAATTATTTATAATCAGCAACTTAACCACAAAACAACCATAAGTTGATATTTTACAAAAGTTGGTATTCAACTATAAAATGTGAATCGAGTATTTCAGCAAAACTACTGCAGTAAGAA', 'Fulfilled'),
  ('AATGTTGTTGATGCAACCATAAAGTGATATTTAATAATTATCAACCATAAAGTGATATTTAACTTAACAACCATATATTGATATCTCACAAAACAACCATAAGTTGATATTTTTGTGAATCGAGTATTTCAGCAAAACTACTGCAGTAAGAA', 'Not fulfilled'),
  ('AATGTTGTTGATGCAACCATAAAGTGATATTTAATACAACCATATATTGATATCTCACAAAACAACCATAAGTTGATATTTTTGTGAATCGAGTATTTCAGCAAAACTACTGCAGTAAGAAAGTTACTTCGTGGTATGGGAGGATCAAGGAG', 'Fulfilled');

src = the supplement of paper PMC10201428
